The reported numbers originate from paper doi:10.1101/602623.

- target_under_test: T1, Cas1-2 integrase complex Wt (Escherichia coli (type I-E), UniProt Q46896;P45956 1-305;1-94)
- T1 sequence 1: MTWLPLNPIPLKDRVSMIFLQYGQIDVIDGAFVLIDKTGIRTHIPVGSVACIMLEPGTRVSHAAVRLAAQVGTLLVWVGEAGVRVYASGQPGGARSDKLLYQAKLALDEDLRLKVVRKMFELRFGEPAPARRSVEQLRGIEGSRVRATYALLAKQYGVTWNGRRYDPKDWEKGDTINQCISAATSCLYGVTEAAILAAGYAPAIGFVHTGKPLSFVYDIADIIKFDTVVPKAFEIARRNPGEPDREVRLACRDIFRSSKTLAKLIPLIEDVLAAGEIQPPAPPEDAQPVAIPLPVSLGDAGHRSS
- T1 sequence 2: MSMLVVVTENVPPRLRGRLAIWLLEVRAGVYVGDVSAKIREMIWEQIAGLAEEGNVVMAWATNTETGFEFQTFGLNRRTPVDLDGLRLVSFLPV
- measurement_protocol: EMSA
attribute_measured: pKd
Quick note: pKd values are minus log10 of concentrations in mol/L.

Query: Which pKd is listed for P23[3'-10] (dsDNA) DNA 1: ATTTACTACTCGTTCTGGTGTTTCTCGTCAGGG DNA 2: AAACACCAGAACGAGTAGTAAATTGGGCTTGAG ?
Response: 6.54

Query: Which pKd is listed for P23[3'-5] (dsDNA) DNA 1: ATTTACTACTCGTTCTGGTGTTTCTCGT DNA 2: AAACACCAGAACGAGTAGTAAATTGGGC ?
Response: 6.60

Query: Which pKd is listed for P63 (dsDNA) DNA 1: CTCCGCGCTGTAGAAGTCACCATTGTTGTGCACGACGACATCATTCCGTGGCGTTATCCAGCT DNA 2: AGCTGGATAACGCCACGGAATGATGTCGTCGTGCACAACAATGGTGACTTCTACAGCGCGGAG ?
Response: 6.08

Query: Which pKd is listed for P33 (dsDNA) DNA 1: GCCCAATTTACTACTCGTTCTGGTGTTTCTCGT DNA 2: ACGAGAAACACCAGAACGAGTAGTAAATTGGGC ?
Response: 5.58
